System: bronchoconstriction in guinea pigs induced with leukotriene D4
Test: Bronchoconstriction in guinea pigs induced with leukotriene D4
Format: in vivo, guinea pig (female Hartley)
Details: Cavia porcellus, 5 min; iv, 5 minutes prior to LTD4 (1 μg/kg i.v.); read-out: Action of Bronchoconstriction in guinea pigs induced with LTD4 [ED50 (mg/kg)] iv
ED50: recorded values
OBSERVED PROPERTY: ED50 (mg/kg)

# COMPOUND, OBSERVED PROPERTY, UNIT SYMBOL, VALUE
data = [
    ("CCC(CC)(CC(=O)Nc1cccc(/C=C/c2cccc(COCCCCc3ccc(OCCC(C)C)cc3)n2)c1)C(=O)O [Compound K, hydrate]", "ED50", "mg/kg", 0.0036),
    ("CCCOc1ccc(CCCCOCc2cccc(/C=C/c3cccc(NC(=O)CC(CC)(CC)C(=O)O)c3)n2)cc1", "ED50", "mg/kg", 0.0023),
    ("CCOc1ccc(CCCCOCc2cccc(/C=C/c3cccc(NC(=O)CC(CC)(CC)C(=O)O)c3)n2)cc1", "ED50", "mg/kg", 0.01),
    ("CCCc1c(OCCCCc2nnn[nH]2)ccc(C(C)=O)c1O [Compound L, reference compound]", "ED50", "mg/kg", 0.28),
    ("CCCCc1ccc(CCCCOCc2cccc(/C=C/c3cccc(NC(=O)CC(CC)(CC)C(=O)O)c3)n2)cc1", "ED50", "mg/kg", 0.0054),
    ("CCC(CC)(CC(=O)Nc1cccc(/C=C/c2cccc(COCCCCc3ccccc3)n2)c1)C(=O)O [Compound A, hydrate]", "ED50", "mg/kg", 0.037),
    ("CCC(CC)(CC(=O)Nc1cccc(/C=C/c2cccc(COCCCCc3ccc(C(C)C)cc3)n2)c1)C(=O)O", "ED50", "mg/kg", 0.014),
    ("CCC(CC)(CC(=O)Nc1cccc(/C=C/c2cccc(COCCCCc3ccc(CC(C)C)cc3)n2)c1)C(=O)O", "ED50", "mg/kg", 0.0012),
    ("CCCc1ccc(CCCCOCc2cccc(/C=C/c3cccc(NC(=O)CC(CC)(CC)C(=O)O)c3)n2)cc1 [Compound E, hydrate]", "ED50", "mg/kg", 0.006),
    ("CCC(CC)(CC(=O)Nc1cccc(/C=C/c2cccc(COCCCCc3ccc(F)cc3)n2)c1)C(=O)O [Compound C, hydrate]", "ED50", "mg/kg", 0.03),
    ("CCCCOc1ccc(CCCCOCc2cccc(/C=C/c3cccc(NC(=O)CC(CC)(CC)C(=O)O)c3)n2)cc1 [Compound J, hydrate]", "ED50", "mg/kg", 0.0046),
    ("CCc1ccc(CCCCOCc2cccc(/C=C/c3cccc(NC(=O)CC(CC)(CC)C(=O)O)c3)n2)cc1", "ED50", "mg/kg", 0.0023),
]

====

Test: Acute toxicity
Conditions: mouse, in vivo; po, single administration, after 10 days, Litchfield-Wilcoxon; read-out: LD50 (mg/kg), po
OBSERVED PROPERTY: LD50 at 240 h

# MOLECULE, VALUE
records = [
    ("CCC(CC)(CC(=O)Nc1cccc(/C=C/c2cccc(COCCCCc3ccc(C)cc3)n2)c1)C(=O)O [Example 1]", "> 1000 mg/kg"),
]
